Molecular target: T1, CD4 cell surface receptor molecule on peripheral blood mononuclear cells (PBMCs) (human, UniProt P01730 26-458)
T1 construct: whole, on cells; also called CD4 receptor molecule
Assay: flow cytometry, PBMCs, live CD3+ T cells; column 'Fab multimer -> D-biotin -> ST-PE': after D-biotin and washing, remaining Fab monomers detected with Strep-Tactin PE alone
Below, each entry is listed alongside its reported percentage of cells within gate.
measuredParameter: percentage of cells within gate (%)

>>> reported("13B8.2 Fab fragment (variable domains of murine anti-CD4 antibody 13B8.2, human CH1 gamma1 and human kappa constant domains), heavy chain fused to One-STrEP-tag (Fab, V domains shown, Expressed in the E. coli periplasm; Stained as a monomer or multimerized on Strep-Tactin PE; also called CD4 wt (13B8.2); 13B8.2 wildtype (wt) Fab fragment) VH: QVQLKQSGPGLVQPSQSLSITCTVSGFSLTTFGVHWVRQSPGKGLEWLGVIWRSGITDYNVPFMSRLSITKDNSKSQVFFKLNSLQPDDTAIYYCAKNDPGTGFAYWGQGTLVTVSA VL: DIQMTQSPASLSASVGETVTFTCRASEMIYSYLAWYQQKQGKSPQLLVHDAKTLAEGVPSRFSGGGSGTQFSLKINTLQPEDFGTYYCQHHYGNPPTFGGGTKLEIKR")
16.1
>>> reported("Mutant 13B8.2 Fab fragment with His at position 35 of the heavy chain mutated to Ala, heavy chain fused to One-STrEP-tag (Fab, V domains shown, also called CD4 mutant 3 (H35A); mutant 3) VH: QVQLKQSGPGLVQPSQSLSITCTVSGFSLTTFGVAWVRQSPGKGLEWLGVIWRSGITDYNVPFMSRLSITKDNSKSQVFFKLNSLQPDDTAIYYCAKNDPGTGFAYWGQGTLVTVSA VL: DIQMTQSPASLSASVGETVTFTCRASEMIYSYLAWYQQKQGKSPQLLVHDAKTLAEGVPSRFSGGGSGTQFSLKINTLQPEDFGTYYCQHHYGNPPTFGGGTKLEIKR")
0.019
>>> reported("Mutant 13B8.2 Fab fragment with Tyr at position 92 of the light chain mutated to Ala, heavy chain fused to One-STrEP-tag (Fab, V domains shown, also called CD4 mutant 2 (Y92A); mutant 2) VH: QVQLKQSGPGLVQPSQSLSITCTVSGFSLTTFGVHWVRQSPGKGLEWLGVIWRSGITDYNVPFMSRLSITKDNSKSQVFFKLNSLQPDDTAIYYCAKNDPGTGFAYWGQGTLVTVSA VL: DIQMTQSPASLSASVGETVTFTCRASEMIYSYLAWYQQKQGKSPQLLVHDAKTLAEGVPSRFSGGGSGTQFSLKINTLQPEDFGTYYCQHHAGNPPTFGGGTKLEIKR")
0.0017
>>> reported("Mutant 13B8.2 Fab fragment with Phe at position 100 of the heavy chain mutated to Ala, heavy chain fused to One-STrEP-tag (Fab, V domains shown, also called CD4 mutant 1 (F100A); F100K-H) VH: QVQLKQSGPGLVQPSQSLSITCTVSGFSLTTFGVHWVRQSPGKGLEWLGVIWRSGITDYNVPFMSRLSITKDNSKSQVFFKLNSLQPDDTAIYYCAKNDPGTGAAYWGQGTLVTVSA VL: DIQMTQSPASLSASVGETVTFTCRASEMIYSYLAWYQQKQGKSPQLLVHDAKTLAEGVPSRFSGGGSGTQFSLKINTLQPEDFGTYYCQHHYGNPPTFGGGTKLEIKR")
16.4
>>> reported("Mutant 13B8.2 Fab fragment with His at position 91 of the light chain mutated to Ala, heavy chain fused to One-STrEP-tag (Fab, V domains shown, also called CD4 mutant 4 (H91A); mutant 4) VH: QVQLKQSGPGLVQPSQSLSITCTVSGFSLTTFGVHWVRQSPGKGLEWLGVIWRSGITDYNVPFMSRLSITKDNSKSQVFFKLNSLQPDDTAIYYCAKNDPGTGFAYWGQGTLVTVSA VL: DIQMTQSPASLSASVGETVTFTCRASEMIYSYLAWYQQKQGKSPQLLVHDAKTLAEGVPSRFSGGGSGTQFSLKINTLQPEDFGTYYCQHAYGNPPTFGGGTKLEIKR")
0.00284
